- target under test: ENaC alpha subunit (epithelial sodium channel subunit alpha) (Homo sapiens)
- Sequence (P37088 whole entry): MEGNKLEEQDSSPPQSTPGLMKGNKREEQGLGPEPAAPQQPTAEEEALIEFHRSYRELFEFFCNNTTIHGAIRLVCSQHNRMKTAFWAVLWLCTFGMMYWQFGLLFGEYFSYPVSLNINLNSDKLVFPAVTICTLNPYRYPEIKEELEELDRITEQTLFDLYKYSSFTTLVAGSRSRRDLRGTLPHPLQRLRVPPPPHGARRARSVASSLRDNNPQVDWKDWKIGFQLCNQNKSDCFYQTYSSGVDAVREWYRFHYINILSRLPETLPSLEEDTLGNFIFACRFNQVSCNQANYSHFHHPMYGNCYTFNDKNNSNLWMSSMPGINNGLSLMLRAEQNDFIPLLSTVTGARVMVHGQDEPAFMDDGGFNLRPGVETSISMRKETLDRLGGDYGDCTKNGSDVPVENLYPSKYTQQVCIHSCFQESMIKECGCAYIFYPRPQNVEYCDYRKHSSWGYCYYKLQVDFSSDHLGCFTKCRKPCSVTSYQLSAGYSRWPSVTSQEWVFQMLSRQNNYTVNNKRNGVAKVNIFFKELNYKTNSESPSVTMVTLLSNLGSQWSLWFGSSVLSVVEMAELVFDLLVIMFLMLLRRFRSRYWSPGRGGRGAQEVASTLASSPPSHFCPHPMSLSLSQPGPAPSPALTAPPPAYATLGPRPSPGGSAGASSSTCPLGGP
- assay notes: Inhibition of S-3969-stimulated recombinant human ENaC alpha subunit expressed in HEK293 cells at 10 uM preincubated for 5 mins followed by S-3969 stimulation by FLIPR assay
- Format: cell-based
- study conditions: HEK293 cells expressing recombinant human ENaC alpha subunit
quantity measured: inhibition at 5 min, 10 µM (%)

{"molecule": "N=C(N)NC(=O)c1nc(Cl)c(N)nc1N [AMILORIDE]", "target under test": "ENaC alpha subunit (epithelial sodium channel subunit alpha) (Homo sapiens)", "quantitative readout": 68}

* * *

- target under test: Epithelial sodium channel subunit gamma (Homo sapiens, UniProt P51170)
- Sequence (P51170 whole entry): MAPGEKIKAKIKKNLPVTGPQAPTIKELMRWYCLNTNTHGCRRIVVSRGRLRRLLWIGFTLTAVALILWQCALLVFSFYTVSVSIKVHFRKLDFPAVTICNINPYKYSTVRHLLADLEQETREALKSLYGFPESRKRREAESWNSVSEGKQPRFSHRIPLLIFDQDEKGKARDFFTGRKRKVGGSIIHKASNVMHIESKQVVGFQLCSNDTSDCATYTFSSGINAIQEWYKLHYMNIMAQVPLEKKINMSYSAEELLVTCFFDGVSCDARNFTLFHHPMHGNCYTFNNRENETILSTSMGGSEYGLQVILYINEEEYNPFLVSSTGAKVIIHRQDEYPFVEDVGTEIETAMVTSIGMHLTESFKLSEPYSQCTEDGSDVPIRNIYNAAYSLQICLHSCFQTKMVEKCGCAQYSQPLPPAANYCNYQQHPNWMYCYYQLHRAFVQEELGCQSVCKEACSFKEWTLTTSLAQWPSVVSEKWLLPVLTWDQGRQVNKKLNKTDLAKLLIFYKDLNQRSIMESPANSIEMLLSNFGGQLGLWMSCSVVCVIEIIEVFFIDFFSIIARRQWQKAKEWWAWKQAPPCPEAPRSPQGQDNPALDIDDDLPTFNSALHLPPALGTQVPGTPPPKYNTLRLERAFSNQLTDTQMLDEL
- assay notes: Inhibition of S-3969-stimulated recombinant human ENaC gamma subunit expressed in HEK293 cells at 10 uM preincubated for 5 mins followed by S-3969 stimulation by FLIPR assay
- Assay type: cell-based
- study conditions: hek293, 10 µM
quantity measured: inhibition (INH)

{"compound": "N=C(N)NC(=O)c1nc(Cl)c(N2CCCCCC2)nc1N [N,N-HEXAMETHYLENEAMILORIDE]", "result": "Not Active"}
{"compound": "N=C(N)NC(=O)c1nc(-c2ccc(C(F)(F)F)cc2)c(N2CCCCCC2)nc1N", "result": "Not Active"}
{"compound": "N=C(N)NC(=O)c1nc(-c2cc3ccccc3o2)c(N2CCCCCC2)nc1N", "result": "Not Active"}
{"compound": "N=C(N)NC(=O)c1nc(-c2cc3ccccc3[nH]2)c(N2CCCCCC2)nc1N", "result": "Not Active"}
{"compound": "N=C(N)NC(=O)c1nc(-c2cncnc2)c(N2CCCCCC2)nc1N", "result": "Not Active"}

* * *

Quick list: pIC50 per entry.
- target under test: Plasma kallikrein (Homo sapiens, UniProt P03952)
- Sequence (P03952 20-390 limits assumed): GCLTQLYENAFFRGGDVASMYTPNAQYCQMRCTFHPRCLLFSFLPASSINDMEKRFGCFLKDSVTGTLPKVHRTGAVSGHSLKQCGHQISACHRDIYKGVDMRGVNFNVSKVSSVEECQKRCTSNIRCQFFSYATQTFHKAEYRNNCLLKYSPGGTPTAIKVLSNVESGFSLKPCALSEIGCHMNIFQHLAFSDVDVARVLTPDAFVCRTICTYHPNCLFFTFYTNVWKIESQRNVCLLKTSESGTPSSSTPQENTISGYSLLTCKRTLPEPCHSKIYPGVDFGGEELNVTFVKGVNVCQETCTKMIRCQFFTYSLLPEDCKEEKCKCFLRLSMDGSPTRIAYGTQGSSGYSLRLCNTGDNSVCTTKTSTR
- Sequence (P03952 391-638 limits assumed): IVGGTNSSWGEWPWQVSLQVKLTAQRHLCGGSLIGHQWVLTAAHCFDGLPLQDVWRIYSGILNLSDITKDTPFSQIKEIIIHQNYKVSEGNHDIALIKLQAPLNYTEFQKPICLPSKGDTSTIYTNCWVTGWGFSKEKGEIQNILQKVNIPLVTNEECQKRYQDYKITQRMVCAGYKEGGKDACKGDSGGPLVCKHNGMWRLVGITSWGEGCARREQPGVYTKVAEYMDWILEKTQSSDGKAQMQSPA
- assay notes: Inhibition of human plasma kallikrein using chromogenic L-pyroGlu-L-Pro-L-Arg-p-nitroaniline as substrate by fluorescence assay
pIC50: −log10 of the molar value.

{"compound": "COc1ncc(-c2nc(C(=O)NC(=N)N)c(N)nc2N2CCCCCC2)cn1", "target under test": "Plasma kallikrein (Homo sapiens, UniProt P03952)", "censoring operator": "<", "pIC50": 4.30}
{"compound": "N=C(N)NC(=O)c1nc(Cl)c(N2CCCCCC2)nc1N [N,N-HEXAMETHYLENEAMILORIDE]", "target under test": "Plasma kallikrein (Homo sapiens, UniProt P03952)", "censoring operator": "<", "pIC50": 4.30}
{"compound": "N=C(N)NC(=O)c1nc(-c2cc3c(F)cccc3o2)c(N2CCCCCC2)nc1N", "target under test": "Plasma kallikrein (Homo sapiens, UniProt P03952)", "censoring operator": "=", "pIC50": 4.78}
{"compound": "N=C(N)NC(=O)c1nc(-c2cc3ccccc3o2)c(N2CCCCCC2)nc1N", "target under test": "Plasma kallikrein (Homo sapiens, UniProt P03952)", "censoring operator": "=", "pIC50": 4.95}

* * *

Observed IC50, system Coagulation factor X (Homo sapiens, UniProt P00742).
quantity measured: IC50

{"compound": "N=C(N)NC(=O)c1nc(-c2cc3ccccc3o2)c(N2CCCCCC2)nc1N", "result": "> 50 µM"}
{"compound": "N=C(N)NC(=O)c1nc(Cl)c(N2CCCCCC2)nc1N [N,N-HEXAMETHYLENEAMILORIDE]", "result": "> 50 µM"}
{"compound": "N=C(N)NC(=O)c1nc(-c2cc3c(F)cccc3o2)c(N2CCCCCC2)nc1N", "result": "> 50 µM"}
{"compound": "COc1ncc(-c2nc(C(=O)NC(=N)N)c(N)nc2N2CCCCCC2)cn1", "result": "> 50 µM"}

* * *

Observed pIC50, system Prothrombin (Homo sapiens).
pIC50: −log10 of the molar value.

{"molecule": "N=C(N)NC(=O)c1nc(Cl)c(N2CCCCCC2)nc1N [N,N-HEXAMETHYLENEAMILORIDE]", "pIC50": "< 5.00"}
{"molecule": "COc1ncc(-c2nc(C(=O)NC(=N)N)c(N)nc2N2CCCCCC2)cn1", "pIC50": "< 4.70"}
{"molecule": "N=C(N)NC(=O)c1nc(-c2cc3ccccc3o2)c(N2CCCCCC2)nc1N", "pIC50": "< 5.00"}
{"molecule": "N=C(N)NC(=O)c1nc(-c2cc3c(F)cccc3o2)c(N2CCCCCC2)nc1N", "pIC50": "< 4.70"}

* * *

- target under test: Coagulation factor XI (Homo sapiens, UniProt P03951)
- Sequence (P03951 19-387 limits assumed): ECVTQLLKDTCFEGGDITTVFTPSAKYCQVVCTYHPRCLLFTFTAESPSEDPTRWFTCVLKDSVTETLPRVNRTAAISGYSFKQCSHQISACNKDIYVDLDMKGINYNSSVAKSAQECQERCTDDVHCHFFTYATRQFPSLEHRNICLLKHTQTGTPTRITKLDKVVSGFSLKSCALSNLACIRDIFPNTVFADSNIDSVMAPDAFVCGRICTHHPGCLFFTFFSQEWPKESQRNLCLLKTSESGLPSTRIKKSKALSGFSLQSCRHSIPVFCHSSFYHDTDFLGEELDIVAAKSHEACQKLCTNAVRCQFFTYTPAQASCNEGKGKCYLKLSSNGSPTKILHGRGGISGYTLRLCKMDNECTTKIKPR
- Sequence (P03951 388-625 limits assumed): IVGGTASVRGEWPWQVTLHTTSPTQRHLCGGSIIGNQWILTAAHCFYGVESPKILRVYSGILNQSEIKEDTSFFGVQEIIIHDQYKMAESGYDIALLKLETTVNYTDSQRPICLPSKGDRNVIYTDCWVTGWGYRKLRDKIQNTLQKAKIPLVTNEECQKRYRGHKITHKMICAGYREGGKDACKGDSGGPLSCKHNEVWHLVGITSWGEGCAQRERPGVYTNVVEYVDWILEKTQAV
pIC50: −log10 of the molar value.

{"compound": "N=C(N)NC(=O)c1nc(Cl)c(N2CCCCCC2)nc1N [N,N-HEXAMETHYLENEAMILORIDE]", "target under test": "Coagulation factor XI (Homo sapiens, UniProt P03951)", "censoring operator": "<", "pIC50": 4.30}
{"compound": "N=C(N)NC(=O)c1nc(-c2cc3ccccc3o2)c(N2CCCCCC2)nc1N", "target under test": "Coagulation factor XI (Homo sapiens, UniProt P03951)", "censoring operator": "=", "pIC50": 4.51}
{"compound": "COc1ncc(-c2nc(C(=O)NC(=N)N)c(N)nc2N2CCCCCC2)cn1", "target under test": "Coagulation factor XI (Homo sapiens, UniProt P03951)", "censoring operator": "<", "pIC50": 4.30}
{"compound": "N=C(N)NC(=O)c1nc(-c2cc3c(F)cccc3o2)c(N2CCCCCC2)nc1N", "target under test": "Coagulation factor XI (Homo sapiens, UniProt P03951)", "censoring operator": "=", "pIC50": 4.63}

* * *

Observed pIC50, system Tissue-type plasminogen activator (Homo sapiens, UniProt P00750).
pIC50: −log10 of the molar value.

{"molecule": "N=C(N)NC(=O)c1nc(Cl)c(N2CCCCCC2)nc1N [N,N-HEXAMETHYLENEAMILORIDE]", "pIC50": "< 5.00"}
{"molecule": "N=C(N)NC(=O)c1nc(-c2cc3ccccc3o2)c(N2CCCCCC2)nc1N", "pIC50": "< 5.00"}
{"molecule": "N=C(N)NC(=O)c1nc(-c2cc3c(F)cccc3o2)c(N2CCCCCC2)nc1N", "pIC50": "< 4.70"}
{"molecule": "COc1ncc(-c2nc(C(=O)NC(=N)N)c(N)nc2N2CCCCCC2)cn1", "pIC50": "< 4.70"}

* * *

- target under test: ENaC gamma subunit (epithelial sodium channel subunit gamma) (Homo sapiens, UniProt P51170)
- assay notes: Inhibition of S-3969-stimulated recombinant human ENaC gamma subunit expressed in HEK293 cells at 10 uM preincubated for 5 mins followed by S-3969 stimulation by FLIPR assay
- Type: cell-based
- study conditions: HEK293 cells expressing recombinant human ENaC gamma subunit
quantity measured: inhibition at 5 min, 10 µM (%)

{"molecule": "N=C(N)NC(=O)c1nc(Cl)c(N)nc1N [AMILORIDE]", "quantity measured": "inhibition at 5 min, 10 µM", "quantitative readout": 68}

* * *

- target under test: Plasminogen (Homo sapiens, UniProt P00747)
- Sequence (P00747 97-580 limits assumed): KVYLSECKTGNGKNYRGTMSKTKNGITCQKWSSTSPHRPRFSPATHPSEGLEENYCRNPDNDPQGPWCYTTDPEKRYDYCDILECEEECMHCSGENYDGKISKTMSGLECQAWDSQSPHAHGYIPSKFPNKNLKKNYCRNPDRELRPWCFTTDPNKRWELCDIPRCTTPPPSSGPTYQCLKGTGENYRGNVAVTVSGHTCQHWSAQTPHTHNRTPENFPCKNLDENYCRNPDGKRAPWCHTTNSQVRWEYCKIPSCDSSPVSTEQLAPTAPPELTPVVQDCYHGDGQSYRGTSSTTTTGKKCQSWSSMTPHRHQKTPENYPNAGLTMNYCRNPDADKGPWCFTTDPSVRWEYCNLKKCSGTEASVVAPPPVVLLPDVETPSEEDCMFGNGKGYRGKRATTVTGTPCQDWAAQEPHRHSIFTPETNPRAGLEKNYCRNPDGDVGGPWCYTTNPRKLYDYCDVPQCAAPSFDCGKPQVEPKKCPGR
- Sequence (P00747 581-810 limits assumed): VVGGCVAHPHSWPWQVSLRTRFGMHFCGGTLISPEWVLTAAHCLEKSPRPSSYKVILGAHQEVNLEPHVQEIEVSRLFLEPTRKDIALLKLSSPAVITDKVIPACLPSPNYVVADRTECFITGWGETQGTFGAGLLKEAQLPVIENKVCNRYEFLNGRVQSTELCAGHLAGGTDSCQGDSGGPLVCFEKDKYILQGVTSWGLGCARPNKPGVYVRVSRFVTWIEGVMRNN
pIC50: −log10 of the molar value.
quantity measured: pIC50

{"molecule": "N=C(N)NC(=O)c1nc(-c2cc3ccccc3o2)c(N2CCCCCC2)nc1N", "target under test": "Plasminogen (Homo sapiens, UniProt P00747)", "quantity measured": "pIC50", "result": "< 5.00"}
{"molecule": "N=C(N)NC(=O)c1nc(Cl)c(N2CCCCCC2)nc1N [N,N-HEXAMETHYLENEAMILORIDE]", "target under test": "Plasminogen (Homo sapiens, UniProt P00747)", "quantity measured": "pIC50", "result": "< 5.00"}
{"molecule": "N=C(N)NC(=O)c1nc(-c2cc3c(F)cccc3o2)c(N2CCCCCC2)nc1N", "target under test": "Plasminogen (Homo sapiens, UniProt P00747)", "quantity measured": "pIC50", "result": "< 4.70"}
{"molecule": "COc1ncc(-c2nc(C(=O)NC(=N)N)c(N)nc2N2CCCCCC2)cn1", "target under test": "Plasminogen (Homo sapiens, UniProt P00747)", "quantity measured": "pIC50", "result": "< 4.70"}
